target: ROCK1 (Homo sapiens (Human)); test: ROCK assay (LABCHIP peptide phosphorylation), ROCK1; format: biochemical; conditions: 5 μM ATP, 1.5 μM peptide substrate; read-out: ROCK1 IC50
Experimental Readout: IC50

{"columns": ["Structure Smiles", "Measured On", "Experimental Readout", "Reported Measurement"],
 "data": [
  ["CC(C)(O)Cn1nc(C(=O)Nc2ccc(-c3n[nH]c(=O)c4ccccc34)cc2)c2cc(F)ccc21", "ROCK1 (Homo sapiens (Human))", "IC50", "0.0001 to 0.1 µM"],
  ["O=C(Nc1ccc(-c2n[nH]c(=O)c3ccccc23)cc1)c1cc2ccccc2n1Cc1ccccc1", "ROCK1 (Homo sapiens (Human))", "IC50", "1 to 50 µM"],
  ["Cc1cc(C(=O)Nc2ccc(-c3n[nH]c(=O)c4ccccc34)cc2)nn1-c1ccccc1", "ROCK1 (Homo sapiens (Human))", "IC50", "0.0001 to 0.1 µM"],
  ["Cn1ccnc1C(=O)Nc1ccc(-c2n[nH]c(=O)c3ccccc23)cc1", "ROCK1 (Homo sapiens (Human))", "IC50", "0.101 to 1 µM"]
]}

* * *

biological target: ROCK1 (Homo sapiens (Human), UniProt Q13464); experiment: ROCK assay (LABCHIP peptide phosphorylation), ROCK1; assay type: biochemical; conditions: 5 μM ATP, 1.5 μM peptide substrate; read-out: ROCK1 IC50
Sequence (Q13464 whole entry, species assumed): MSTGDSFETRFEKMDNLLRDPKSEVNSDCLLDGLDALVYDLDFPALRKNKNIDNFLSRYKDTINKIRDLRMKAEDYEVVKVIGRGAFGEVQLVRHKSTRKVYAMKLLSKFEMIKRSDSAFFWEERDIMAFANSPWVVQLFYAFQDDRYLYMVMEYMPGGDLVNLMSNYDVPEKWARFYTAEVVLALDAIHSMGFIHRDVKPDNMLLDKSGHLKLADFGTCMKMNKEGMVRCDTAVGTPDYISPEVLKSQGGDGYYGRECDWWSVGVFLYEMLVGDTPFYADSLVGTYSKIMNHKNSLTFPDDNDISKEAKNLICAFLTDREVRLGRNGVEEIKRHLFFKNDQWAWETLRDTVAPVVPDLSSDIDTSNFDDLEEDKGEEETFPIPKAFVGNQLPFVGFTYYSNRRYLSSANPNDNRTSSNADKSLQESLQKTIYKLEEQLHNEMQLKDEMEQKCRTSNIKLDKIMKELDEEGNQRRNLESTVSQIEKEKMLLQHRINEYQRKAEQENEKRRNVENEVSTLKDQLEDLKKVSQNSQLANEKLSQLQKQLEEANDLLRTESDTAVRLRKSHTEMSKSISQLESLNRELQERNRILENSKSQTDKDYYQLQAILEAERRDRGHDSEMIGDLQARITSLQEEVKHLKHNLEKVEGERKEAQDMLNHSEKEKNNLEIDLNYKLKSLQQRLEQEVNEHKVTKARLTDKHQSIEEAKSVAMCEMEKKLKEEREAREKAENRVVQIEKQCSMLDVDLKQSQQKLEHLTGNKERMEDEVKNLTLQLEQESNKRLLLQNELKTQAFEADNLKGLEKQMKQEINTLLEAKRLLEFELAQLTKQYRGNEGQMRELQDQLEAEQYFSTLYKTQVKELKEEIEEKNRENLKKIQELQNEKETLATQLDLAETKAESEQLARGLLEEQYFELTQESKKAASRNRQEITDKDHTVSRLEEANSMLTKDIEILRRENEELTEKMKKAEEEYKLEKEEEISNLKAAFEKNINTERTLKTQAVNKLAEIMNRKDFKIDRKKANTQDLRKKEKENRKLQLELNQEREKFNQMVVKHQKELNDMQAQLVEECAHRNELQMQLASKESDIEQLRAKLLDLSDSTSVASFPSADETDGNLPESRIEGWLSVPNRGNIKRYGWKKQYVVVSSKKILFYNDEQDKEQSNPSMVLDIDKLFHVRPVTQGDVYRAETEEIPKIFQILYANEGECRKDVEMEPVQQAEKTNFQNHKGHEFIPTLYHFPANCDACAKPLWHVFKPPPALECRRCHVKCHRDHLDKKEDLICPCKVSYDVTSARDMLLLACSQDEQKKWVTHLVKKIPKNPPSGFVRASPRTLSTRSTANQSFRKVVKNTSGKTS
List of IC50 values.
Experimental Readout: IC50

{"columns": ["Molecule", "Experimental Readout", "Reported Measurement"],
 "data": [
  ["COc1ccccc1-n1nnc(C(=O)Nc2ccc(-c3n[nH]c(=O)c4ccccc34)cc2)c1C", "IC50", "0.1 to 100 nM"],
  ["CC1Cc2ccccc2N1C(=O)Cc1ccc(-c2n[nH]c(=O)c3ccccc23)cc1 (stereo not shown)", "IC50", "101 to 1000 nM"],
  ["Cc1ccc(N2CC(C(=O)Nc3ccc(-c4n[nH]c(=O)c5ccccc45)cc3)CC2=O)cc1 (stereo not shown)", "IC50", "101 to 1000 nM"],
  ["CN1CC[C@H](Oc2ccc3c(c2)N(C(=O)Cc2ccc(-c4n[nH]c(=O)c5ccccc45)cc2)CC3)C1", "IC50", "101 to 1000 nM"]
]}

* * *

target: ROCK2 (Homo sapiens (Human)); test: ROCK assay (LABCHIP peptide phosphorylation), ROCK2; assay type: biochemical; settings: 5 μM ATP, 1.5 μM peptide substrate
Sequence (O75116 whole entry, species assumed): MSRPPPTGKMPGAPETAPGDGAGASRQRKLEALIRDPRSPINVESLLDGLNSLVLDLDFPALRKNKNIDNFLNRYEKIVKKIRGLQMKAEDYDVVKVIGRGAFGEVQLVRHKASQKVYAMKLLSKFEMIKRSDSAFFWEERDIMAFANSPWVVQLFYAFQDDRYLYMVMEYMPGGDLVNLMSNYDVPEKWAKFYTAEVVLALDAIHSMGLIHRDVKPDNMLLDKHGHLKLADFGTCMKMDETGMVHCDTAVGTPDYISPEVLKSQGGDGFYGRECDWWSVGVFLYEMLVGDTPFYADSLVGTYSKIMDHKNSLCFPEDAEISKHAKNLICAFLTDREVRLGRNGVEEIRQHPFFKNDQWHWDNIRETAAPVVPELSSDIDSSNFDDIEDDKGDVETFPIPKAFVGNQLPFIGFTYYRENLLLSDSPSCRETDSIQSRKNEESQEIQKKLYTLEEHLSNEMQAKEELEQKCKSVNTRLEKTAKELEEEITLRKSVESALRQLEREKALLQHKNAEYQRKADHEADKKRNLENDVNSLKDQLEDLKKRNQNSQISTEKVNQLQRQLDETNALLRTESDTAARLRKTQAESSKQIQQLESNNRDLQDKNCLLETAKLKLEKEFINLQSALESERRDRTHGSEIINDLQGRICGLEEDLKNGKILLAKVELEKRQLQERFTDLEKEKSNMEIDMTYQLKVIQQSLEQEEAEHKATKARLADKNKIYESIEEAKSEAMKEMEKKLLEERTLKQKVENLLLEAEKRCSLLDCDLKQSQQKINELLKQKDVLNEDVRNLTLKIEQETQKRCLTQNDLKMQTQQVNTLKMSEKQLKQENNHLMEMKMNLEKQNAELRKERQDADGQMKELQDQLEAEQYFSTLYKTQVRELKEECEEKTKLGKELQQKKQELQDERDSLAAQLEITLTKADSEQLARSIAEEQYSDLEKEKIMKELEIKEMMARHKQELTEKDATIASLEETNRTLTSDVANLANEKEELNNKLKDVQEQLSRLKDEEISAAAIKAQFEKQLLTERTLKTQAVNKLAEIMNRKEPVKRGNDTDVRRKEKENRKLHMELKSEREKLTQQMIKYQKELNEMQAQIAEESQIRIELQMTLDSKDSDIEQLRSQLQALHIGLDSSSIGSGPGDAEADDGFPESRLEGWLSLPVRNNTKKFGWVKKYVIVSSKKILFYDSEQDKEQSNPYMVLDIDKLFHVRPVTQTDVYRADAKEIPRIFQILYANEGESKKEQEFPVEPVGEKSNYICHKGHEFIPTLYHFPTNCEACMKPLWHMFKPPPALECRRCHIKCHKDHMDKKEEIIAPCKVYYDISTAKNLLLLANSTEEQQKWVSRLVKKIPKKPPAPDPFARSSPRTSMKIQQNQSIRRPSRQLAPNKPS
Below is a list of entries, each paired with its recorded IC50 value.
Experimental Readout: IC50

{"columns": ["Compound", "Measured On", "Experimental Readout", "Reported Measurement"],
 "data": [
  ["CC(C)(O)COc1ccc2c(C(=O)Nc3ccc(-c4n[nH]c(=O)c5ccccc45)cc3)cnn2c1", "ROCK2 (Homo sapiens (Human))", "IC50", "0.1 to 100 nM"],
  ["COc1cccc2cc(C(=O)Nc3ccc(-c4n[nH]c(=O)c5ccccc45)c(C)c3)[nH]c12", "ROCK2 (Homo sapiens (Human))", "IC50", "0.1 to 100 nM"],
  ["O=C(Nc1ccc(-c2n[nH]c(=O)c3ccccc23)cc1)c1nn(CC2CCOC2)c2ccccc12 (stereo not drawn)", "ROCK2 (Homo sapiens (Human))", "IC50", "0.1 to 100 nM"],
  ["Cn1c(C(=O)Nc2ccc(-c3c[nH]c(=O)c4ccccc34)cc2)cc2ccccc21", "ROCK2 (Homo sapiens (Human))", "IC50", "0.1 to 100 nM"],
  ["O=C(Nc1ccc(-c2n[nH]c(=O)c3ccccc23)cc1)c1cnn2ccc(OCCN3CCCC3)cc12", "ROCK2 (Homo sapiens (Human))", "IC50", "0.1 to 100 nM"],
  ["Cc1oc2ccc(OCc3ccccc3)cc2c1C(=O)Nc1ccc(-c2n[nH]c(=O)c3ccccc23)cc1", "ROCK2 (Homo sapiens (Human))", "IC50", "0.1 to 100 nM"],
  ["Cc1cc(NC(=O)c2nn(CC3CN(C)C3)c3ccccc23)ccc1-c1n[nH]c(=O)c2ccccc12", "ROCK2 (Homo sapiens (Human))", "IC50", "101 to 1000 nM"],
  ["CN1CCN(Cc2ccc3c(c2)CN(C(=O)Oc2ccc(-c4n[nH]c(=O)c5ccccc45)cc2)C3)CC1", "ROCK2 (Homo sapiens (Human))", "IC50", "0.1 to 100 nM"],
  ["CC(C)=Cn1nc(C(=O)Nc2ccc(-c3n[nH]c(=O)c4ccccc34)cc2)c2cc(F)ccc21", "ROCK2 (Homo sapiens (Human))", "IC50", "0.1 to 100 nM"]
]}

* * *

Entries and their IC50 values follow.
target: ROCK1 (Homo sapiens (Human), UniProt Q13464); test: ROCK assay (LABCHIP peptide phosphorylation), ROCK1; assay type: biochemical; conditions: 5 μM ATP, 1.5 μM peptide substrate; read-out: ROCK1 IC50
Experimental Readout: IC50

{"columns": ["Compound", "Reported Measurement"],
 "data": [
  ["COc1ccc(-n2nnc(C(=O)Nc3ccc(-c4n[nH]c(=O)c5ccccc45)cc3)c2C)cc1 [Example 401]", "0.1 to 100 nM"],
  ["CC(=O)N1CC(Cn2nc(C(=O)Nc3ccc(-c4n[nH]c(=O)c5ccccc45)c(Cl)c3)c3ccccc32)C1 [Example 329]", "0.1 to 100 nM"],
  ["O=C(Nc1ccc(-c2n[nH]c(=O)c3ccccc23)cc1)c1cnn2ccc(OCCN3CCOCC3)cc12 [Example 187]", "0.1 to 100 nM"],
  ["CC(C)(O)Cn1cc(C(=O)Nc2ccc(-c3n[nH]c(=O)c4ccccc34)cc2)c2ccccc21 [Example 138]", "0.1 to 100 nM"],
  ["CCOc1ccc2oc(C)c(C(=O)Nc3ccc(-c4n[nH]c(=O)c5ccccc45)cc3)c2c1 [Example 100]", "0.1 to 100 nM"],
  ["O=C(Nc1ccc(-c2n[nH]c(=O)c3ccccc23)cc1)C1CCN(Cc2ccccc2)CC1 [Example 56]", "1000 to 50000 nM"],
  ["O=C(Nc1ccc(-c2c[nH]c(=O)c3ccccc23)cc1)N1CCc2ccccc21 [Example 77]", "0.1 to 100 nM"],
  ["O=C(Nc1ccc(-c2n[nH]c(=O)c3ccccc23)c(CO)c1)c1cnc2ccccn12 [Example 365]", "1000 to 50000 nM"],
  ["CC(=O)N1CCC(Cn2nc(C(=O)Nc3ccc(-c4n[nH]c(=O)c5ccccc45)cc3)c3ccccc32)CC1 [Example 343]", "0.1 to 100 nM"],
  ["COc1ccc2c(=O)[nH]cc(-c3ccc(OC(=O)N4Cc5ccccc5C4)cc3)c2c1 [Example 269]", "1000 to 50000 nM"],
  ["O=C(Nc1ccc(-c2n[nH]c(=O)c3ccccc23)cc1)c1cnn([C@H]2C[C@@H]3CC[C@H]2C3)c1 [Example 393]", "0.1 to 100 nM"],
  ["COc1cc(C)c2c(c1)CCN2C(=O)Cc1ccc(-c2n[nH]c(=O)c3ccccc23)cc1 [Example 252]", "1000 to 50000 nM"],
  ["COCCn1nc(C(=O)Nc2ccc(-c3n[nH]c(=O)c4ccccc34)cc2)c2ccccc21 [Example 151]", "0.1 to 100 nM"],
  ["O=C(Nc1ccc(-c2n[nH]c(=O)c3ccccc23)cc1)c1ncc(-c2ccncc2)s1 [Example 47]", "101 to 1000 nM"],
  ["Cc1noc(-c2ccc(C(C)(C)O)cc2)c1C(=O)Nc1ccc(-c2n[nH]c(=O)c3ccccc23)cc1 [Example 223]", "0.1 to 100 nM"],
  ["O=C(Nc1ccc(-c2n[nH]c(=O)c3ccccc23)cc1)C1Cc2ccccc2C1 [Example 44]", "1000 to 50000 nM"],
  ["O=C(Nc1ccc(-c2n[nH]c(=O)c3ccccc23)cc1)c1c[nH]c2ncccc12 [Example 135]", "101 to 1000 nM"],
  ["O=c1[nH]nc(-c2ccc(Nc3nc4ccccc4o3)cc2)c2ccccc12 [Example 75]", "0.1 to 100 nM"],
  ["CCOc1ccc2c(c1)N(C(=O)Cc1ccc(-c3c[nH]c(=O)c4ccccc34)cc1)CC2 [Example 254]", "101 to 1000 nM"],
  ["CC(O)Cn1nc(C(=O)Nc2ccc(-c3n[nH]c(=O)c4ccccc34)cc2)c2ccccc21 (stereo not shown) [Example 153]", "0.1 to 100 nM"],
  ["Cc1cc(CC(=O)N2Cc3ccccc3C2)ccc1-c1n[nH]c(=O)c2ccccc12 [Example 260]", "101 to 1000 nM"],
  ["Cc1cc(NC(=O)c2cnn(-c3ccccc3)c2C)ccc1-c1n[nH]c(=O)c2ccccc12 [Example 394]", "101 to 1000 nM"],
  ["COc1cccc(-n2cc(C(=O)Nc3ccc(-c4n[nH]c(=O)c5ccccc45)cc3)nn2)c1 [Example 404]", "0.1 to 100 nM"],
  ["Cc1cc(NC(=O)c2c[nH]c3ncc(F)cc23)ccc1-c1n[nH]c(=O)c2ccccc12 [Example 308]", "0.1 to 100 nM"],
  ["O=C(Nc1ccc(-c2n[nH]c(=O)c3ccccc23)cc1)c1cnn(C2CCOC2)c1 (stereo not shown) [Example 390]", "101 to 1000 nM"]
]}

# credit: patent US9926282B2
